Here the recorded %HOA estimated human oral absorption is given for each entry.
Experiment: IAM chromatography (IAM.PC.DD.2 column) and estimated human oral absorption
Assay type: in vitro ADME
Settings: Equation (1) from logkw and physicochemical properties
Method: The immobilized artificial membrane (IAM) chromatographic behavior of the 25 novel coumarin derivatives was studied. […] The training set consisted of 25 neutral and slightly acidic compounds. Their IAM retention factors were measured at pH 7.40 on a IAM.PC.DD.2 column. […] Their HSA retention factors were measured at pH 7.00 on HSA column. […]
Give just the number in %; leave the unit off.

CC(=O)Oc1cccc2oc(=O)c(-c3ccccc3F)c(C)c12 [Compound 3d]; 99.7

Proceed to the following item.
Please look up its %HOA estimated human oral absorption: CC(=O)Oc1ccc(-c2c(C)c3cc(Br)ccc3oc2=O)cc1OC(C)=O [Compound 3m]
99.6
